System: 898857-211-R-J1-PDC complex spheroids, growth % test/control
Assay: Anticancer human tumor 898857-211-R-J1-PDC patient-derived melanoma cell line growth inhibition [RAS]
Conditions: second compound 10 µM; first compound 3.16 µM; hits give low values
quantity-name: viability, T/C (%)
Form entry: value (%) — number only.

The molecule identified as CC(=O)OC12COC1CC(O)C1(C)C(=O)C(O)C3=C(C)C(OC(=O)C(O)C(NC(=O)OC(C)(C)C)c4ccccc4)CC(O)(C(OC(=O)c4ccccc4)C21)C3(C)C (configuration not stated) + C#Cc1c(F)ccc2cc(O)cc(-c3ncc4c(N5CC6CCC(C5)N6)nc(OCC56CCCN5CC(F)C6)nc4c3F)c12 registered its viability, T/C at 7.68

So for CC1(O)CCCC1n1c(=O)c(C(F)F)cc2cnc(NC3CCN(S(C)(=O)=O)CC3)nc21 (configuration not stated) + C#Cc1c(F)ccc2cc(O)cc(-c3ncc4c(N5CC6CCC(C5)N6)nc(OCC56CCCN5CC(F)C6)nc4c3F)c12 , the logged viability, T/C turned out to be 35.8

* * *

Tested on: 898857-211-R-J1-PDC complex spheroids, growth % test/control
Assay: Anticancer human tumor 898857-211-R-J1-PDC cell line growth inhibition [RAS]; active = viability on the fitted dose curve at most 10% of control; inactive = the rest;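 note: spheroids exposed to compound for seven days before readout; 100% = DMSO vehicle control wells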
Details: second compound 0.1 µM; first compound 0.0316 µM
Text: RAS pathway inhibitors in Combinations in Complex Spheroids A high-throughput screen of multi-cell type tumor spheroids was designed to identify active combinations of RAS pathway inhibitors and targeted small molecules. Complex spheroids include a stromal component modeled by human endothelial cells (HUVEC) and fibroblasts modeled by human mesenchymal stem cells (MSCs). […] Compounds. […] If the clinical Cmax for an agent had not been determined, the highest concentration tested was 10 microM. […]
Returns: one label drawn from true (1) = active, false (0) = inactive

Reference set (2 entries):
{"compound": "C=CC(=O)Nc1cc(Nc2nccc(-c3cn(C)c4ccccc34)n2)c(OC)cc1N(C)CCN(C)C + C#Cc1c(F)ccc2cc(O)cc(-c3ncc4c(N5CC6CCC(C5)N6)nc(OCC56CCCN5CC(F)C6)nc4c3F)c12", "label": "false (0)"}
{"compound": "Nc1ccn(C2OC(CO)C(O)C2(F)F)c(=O)n1 (stereo not drawn) + C#Cc1c(F)ccc2cc(O)cc(-c3ncc4c(N5CC6CCC(C5)N6)nc(OCC56CCCN5CC(F)C6)nc4c3F)c12", "label": "true (1)"}

Exercise: Recorded call for CC(Nc1ccc2c(c1)OCCn1cc(N3C(=O)OCC3C(F)F)nc1-2)C(N)=O (stereo not drawn) + C=CC(=O)N1CCN(c2nc(OCC3CCCN3C)nc3c(F)c(-c4nc(N)cc(C)c4C(F)(F)F)c(Cl)cc23)C(C)C1 ?
Solution: false (0)

* * *

System: 898857-211-R-J1-PDC complex spheroids, growth % test/control
Assay: Anticancer human tumor 898857-211-R-J1-PDC cell line growth inhibition [RAS];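 note: spheroids exposed to compound for seven days before readout; 100% = DMSO vehicle control wells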
Settings: second compound 0.000949 µM; first compound 10 µM; hits give low values
quantity-name: viability, T/C (%)
# number only, unit % dropped from output

{"compound": "CC(C)NCC(C(=O)N1CCN(c2ncnc3c2C(C)CC3O)CC1)c1ccc(Cl)cc1 (stereo not drawn) + CCn1c(-c2cccnc2C(C)OC)c2c3cc(ccc31)N1CCOC(CC(NC(=O)C(C(C)C)N(C)C(=O)C3(F)CCN(C(=O)C#CC(C)(C)N(C)C)CC3)C(=O)N3CCCC(N3)C(=O)OCC(C)(C)C2)C1", "assay-system": "898857-211-R-J1-PDC complex spheroids, growth % test/control", "viability, T/C [%]": 50.9}
{"compound": "C[C@@H](NC(=O)c1ncnc(N)c1Cl)c1ncc(C(=O)Nc2cc(C(F)(F)F)c(Cl)cn2)s1 + CCn1c(-c2cccnc2C(C)OC)c2c3cc(ccc31)N1CCOC(CC(NC(=O)C(C(C)C)N(C)C(=O)C3(F)CCN(C(=O)C#CC(C)(C)N(C)C)CC3)C(=O)N3CCCC(N3)C(=O)OCC(C)(C)C2)C1", "assay-system": "898857-211-R-J1-PDC complex spheroids, growth % test/control", "viability, T/C [%]": 27.5}
{"compound": "NC1c2ccccc2OC12CCN(c1cnc3c(N4CCCc5ncccc54)n[nH]c3n1)CC2 (stereo not drawn) + CCn1c(-c2cccnc2C(C)OC)c2c3cc(ccc31)N1CCOC(CC(NC(=O)C(C(C)C)N(C)C(=O)C3(F)CCN(C(=O)C#CC(C)(C)N(C)C)CC3)C(=O)N3CCCC(N3)C(=O)OCC(C)(C)C2)C1", "assay-system": "898857-211-R-J1-PDC complex spheroids, growth % test/control", "viability, T/C [%]": 70.9}
{"compound": "Cc1nc(N2CCC3(CC2)COC(C)C3N)c(CO)nc1Sc1ccnc(N)c1Cl (stereo not drawn) + CCn1c(-c2cc(N3CCN(C)CC3)cnc2C(C)OC)c2c3cc(ccc31)-c1csc(n1)CC(NC(=O)C1CC1C)C(=O)N1CCCC(N1)C(=O)OCC(C)(C)C2", "assay-system": "898857-211-R-J1-PDC complex spheroids, growth % test/control", "viability, T/C [%]": 86.1}
{"compound": "CC(=O)OC12COC1CC(O)C1(C)C(=O)C(O)C3=C(C)C(OC(=O)C(O)C(NC(=O)OC(C)(C)C)c4ccccc4)CC(O)(C(OC(=O)c4ccccc4)C21)C3(C)C (stereo not drawn) + CCn1c(-c2cccnc2C(C)OC)c2c3cc(ccc31)N1CCOC(CC(NC(=O)C(C(C)C)N(C)C(=O)C3(F)CCN(C(=O)C#CC(C)(C)N(C)C)CC3)C(=O)N3CCCC(N3)C(=O)OCC(C)(C)C2)C1", "assay-system": "898857-211-R-J1-PDC complex spheroids, growth % test/control", "viability, T/C [%]": 20.4}

Field viability, T/C (entry CC1(O)CCCC1n1c(=O)c(C(F)F)cc2cnc(NC3CCN(S(C)(=O)=O)CC3)nc21 (stereo not drawn) + CCn1c(-c2cc(N3CCN(C)CC3)cnc2C(C)OC)c2c3cc(ccc31)-c1csc(n1)CC(NC(=O)C1CC1C)C(=O)N1CCCC(N1)C(=O)OCC(C)(C)C2 ) reads 15.2

Sample CC(C)NCC(C(=O)N1CCN(c2ncnc3c2C(C)CC3O)CC1)c1ccc(Cl)cc1 (stereo not drawn) + CCn1c(-c2cc(N3CCN(C)CC3)cnc2C(C)OC)c2c3cc(ccc31)-c1csc(n1)CC(NC(=O)C1CC1C)C(=O)N1CCCC(N1)C(=O)OCC(C)(C)C2 ; viability, T/C observed: 50.5

Record NC1c2ccccc2OC12CCN(c1cnc3c(N4CCCc5ncccc54)n[nH]c3n1)CC2 (stereo not drawn) + CCn1c(-c2cc(N3CCN(C)CC3)cnc2C(C)OC)c2c3cc(ccc31)-c1csc(n1)CC(NC(=O)C1CC1C)C(=O)N1CCCC(N1)C(=O)OCC(C)(C)C2 . Reported viability, T/C: 51
